Source: ChEMBL document CHEMBL1201862

# Test system: SK-MEL-28
# Test Details: NCI tumour cell line growth inhibition, 48 h
Calls of active or inactive are those of the source. Cut-off read from the data, not from the text of the source: active = GI50 up to about 1.1 µM and inactive = higher.
Kindly supply the reported GI50 values for the records listed here.

Solved cases (5 shown):
OCC1CC2CC1C1(C2)OCCO1 (stereo unspecified): > 100 µM (inactive)
CCCCCCCCCC(=O)CC(=O)c1c(O)cccc1O: 62.7 µM (inactive)
Sc1nnc(C23CC4CC(CC(C4)C2)C3)n1-c1ccc(Cl)cc1: 11.9 µM (inactive)
CC1(N2CCOCC2)CC2C(=[N+]1[O-])CCC/C2=N/O (stereo unspecified): > 100 µM (inactive)
CC1=NCCc2cc3[nH]c4ccccc4c3cc21: 10.7 µM (inactive)

Please state GI50 for every compound in the list that follows.
1. COC(=O)C1C(=O)CC(C)(O)C(C(=O)OC)C1c1ccc(N(C)C)cc1 (stereo unspecified)
2. O=C(NC1=C(Cl)C(=O)c2ccccc2C1=O)c1ccc(F)cc1
3. COc1ccc(C2COc3cc(OC(C)=O)c(OC(C)=O)cc3C2)cc1 (stereo unspecified)
4. CC(C)CC1NC(=O)C(C(C)C)NC(=O)CC(C)COC(=O)C(CC(C)C)N(C)C(=O)C(C(C)C)NC(=O)C(C(C)C)OC1=O (stereo unspecified)

> 100 µM (inactive)
4.86 µM (inactive)
23.8 µM (inactive)
> 50 µM (inactive)

Please state GI50 for every compound in the list that follows.
1. COc1ccccc1C1C(Cl)C(=O)N1NC(=O)Cc1ccccc1 (stereo unspecified)
2. O=C(NNC(=S)Nc1cccc(Cl)c1)c1cc(-c2ccccc2)nc2ccccc12

["> 100 µM (inactive)", "12.4 µM (inactive)"]

====

# System: Hs-578T
# Test Details: NCI tumour cell line growth inhibition, 48 h
Active and inactive are the calls of the source. Rule as the data show it: active = GI50 up to about 1.1 µM and inactive = higher.
Kindly supply the reported GI50 values for the records listed here.

Solved cases (5 shown):
C=C(C)C1CC2(C)C(C)CC(OC(=O)/C(C)=C\C)CC2C(OC(=O)/C(C)=C\C)C1O (stereo not given): 34.7 µM (inactive)
Cc1ccc(S(=O)(=O)N2CCN(CCN(C)CCN3CCN(S(=O)(=O)c4ccc(C)cc4)CC3)CC2)cc1: 22.3 µM (inactive)
CC(=O)Nc1ccc(Nc2cc(=O)n(C)c(=O)[nH]2)cc1: > 100 µM (inactive)
NC12CC3C4CC5(N)CC3C(C1)C(C5)C4C2: > 100 µM (inactive)
CSc1c(C#N)c2n(c3ccccc3[n+]2C)c2ncccc12: 36.7 µM (inactive)

Please state GI50 for every compound in the list that follows.
1. O=c1[nH]c(=O)n(C2CC(O)C(CO)O2)c2nc3ccc4cc5ccccc5cc4c3nc12 (stereo not given)
2. CCCCCCOc1ccc(NC2=C(Cl)C(=O)c3c(O)ccc(O)c3C2=O)cc1
3. O=C(O)CC1NC(/C(=C/c2ccccc2)NC(=O)c2ccccc2)OC1=O (stereo not given)
4. Nc1nc(Cl)cc(NCCC2(CO)CCC2)n1
5. O=C(C/N=C(\CN(c1ccccc1)c1ccccc1)Oc1c([N+](=O)[O-])cc([N+](=O)[O-])cc1[N+](=O)[O-])N1CCNCC1

1. > 100 µM (inactive)
2. 3.35 µM (inactive)
3. 44.8 µM (inactive)
4. 45.4 µM (inactive)
5. 25.4 µM (inactive)

====

Kindly supply the reported GI50 values for the records listed here.
# Test system: UACC-62
# Test Details: NCI tumour cell line growth inhibition, 48 h
The source made the active and inactive calls. Cut-off read from the data, not from the text of the source: active = GI50 up to about 1.1 µM and inactive = higher.

CCCCCCCCCCCCOC(=S)NCCCC: 16.7 µM (inactive)

Please state GI50 for every compound in the list that follows.
1. CC(=O)OC12c3ccccc3C(c3ccccc31)C1C(=O)N(N=C(C)C)C(=O)C12 (stereo not given)
2. c1cc(C2O[C@H]3CCCN3[C@@H]2c2ccncc2)ccn1 (stereo not given in full)
3. CC(=O)Nc1ccc(SC#N)c2c(NC(C)=O)cccc12

1. > 100 µM (inactive)
2. > 100 µM (inactive)
3. 78.3 µM (inactive)

Please state GI50 for every compound in the list that follows.
1. c1ccc2c(c1)SCCCSCCCS2
2. CCOC(=O)c1c(N2CCCC2)[nH]c(=O)c(C(c2ccc(N(C)C)cc2)c2c(O)c(C(=O)OCC)c(N3CCCC3)[nH]c2=O)c1O
3. Cc1c(OCCCOc2ccc3c(=O)cc(-c4ccccc4)oc3c2C)ccc2c(=O)cc(-c3ccccc3)oc12
4. CC1C(c2ccccc2)O[B-](F)(c2ccccc2)[NH+]1C (stereo not given)
5. O=C(O)c1ccc2c(c1)Cc1cc([N+](=O)[O-])ccc1-2

["> 100 µM (inactive)", "> 100 µM (inactive)", "> 100 µM (inactive)", "> 100 µM (inactive)", "> 100 µM (inactive)"]

If you can, please state the reported GI50 value of Cc1cccc(NC(=O)CSc2nnc(-c3ccc(/N=C\c4ccc(Cl)cc4)cc3)o2)c1 .
> 100 µM (inactive)

====

# Test system: UACC-257
# Test Details: NCI tumour cell line growth inhibition, 48 h
Calls of active or inactive are those of the source. No stated cut-off is given here; in the data, active = GI50 up to about 1.1 µM and inactive = higher.
Measurement Kind: GI50

Solved cases (5 shown):
CN(C)c1ccc2cc3ccc(N(C)C)cc3nc2c1: 3.98 µM (inactive)
Sc1nnc(C23CC4CC(CC(C4)C2)C3)n1-c1ccc(Cl)cc1: 22.5 µM (inactive)
C=C(C)[C@@]1(O)O[C@H]2C[C@@]3(C)OC(=CC3=O)/C(C)=C\[C@@H]3OC(=O)[C@@]1(C)[C@H]32: 23.2 µM (inactive)
COC(=O)C(CCC1(C)OCCO1)=[N+]=[N-]: > 100 µM (inactive)
O=C1C2=C(C3=NCCc4c[nH]c1c43)c1c(cc(Br)c(O)c1Br)CCN2: 7.5 µM (inactive)

Please state GI50 for every compound in the list that follows.
1. OCC(O)C(O)c1nn(-c2ccccc2)c2nc3cc(Cl)c(Cl)cc3nc12 (stereo not given)
2. CCOC(=N)CC(=O)Nc1cccc(C)c1C
3. O=c1oc2ccccc2cc1-c1nnc(-c2ccccc2)s1
4. CC1C(c2ccccc2)O[B-](F)(c2ccccc2)[NH+]1C (stereo not given)
5. O=C1C=C(c2c(O)ccc3ccccc23)c2ccccc2C1=O

["36.7 µM (inactive)", "> 100 µM (inactive)", "> 100 µM (inactive)", "> 100 µM (inactive)", "2.39 µM (inactive)"]

====

# Tested on: M19-MEL
# Test Details: NCI tumour cell line growth inhibition, 48 h
Activity calls are given as the source filed them. Rule as the data show it: active = GI50 up to about 1.1 µM and inactive = higher.
Kindly supply the reported GI50 values for the records listed here.

Solved cases (6 shown):
Cc1ccc(C(=O)N2c3ccccc3N(C)n3cccc3C2CC(=O)O)cc1 (stereo not drawn): > 100 µM (inactive)
O=Cc1[nH]c2ccccc2c1Br: 22.1 µM (inactive)
O=C(O)Cc1ccc2c(c1O)C(=O)c1c(ccc(CC(=O)O)c1O)C2=O: > 100 µM (inactive)
c1ccc(-c2csc3ncn4cnnc4c23)cc1: > 100 µM (inactive)
CN(N=O)C(=O)NC(CCCCNC(=O)OCc1ccccc1)C(=O)OCc1ccccc1 (stereo not drawn): 27.1 µM (inactive)
CC[P+]1(CC)CCCC1: > 100 µM (inactive)

Please state GI50 for every compound in the list that follows.
1. N#CC(C(=O)CCCC(=O)Nc1ccccc1[N+](=O)[O-])c1c(Cl)cccc1Cl (stereo not drawn)
2. OCC(O)C(O)c1nn(-c2ccccc2)c2nc3cc(Cl)c(Cl)cc3nc12 (stereo not drawn)

1. > 100 µM (inactive)
2. 28.8 µM (inactive)

====

# Test system: K562
# Test Details: NCI tumour cell line growth inhibition, 48 h
The source made the active and inactive calls. No stated cut-off is given here; in the data, active = GI50 up to about 1.1 µM and inactive = higher.
Kindly supply the reported GI50 values for the records listed here.

Please state GI50 for every compound in the list that follows.
1. O=C1CSC(c2ccc(Cl)cc2)N1c1ccc(-c2ccc(-n3c(-c4ccccc4)nc4ccccc4c3=O)cc2)cc1 (stereo not given)
2. CC(=O)OCC1OC(n2ncc(=O)[nH]c2=O)C(OC(C)=O)C1OC(C)=O (stereo not given)
3. CCOC(=O)c1cc([N+](=O)[O-])cc([N+](=O)[O-])c1Sc1[nH]cnc2ncnc1-2
4. COc1ccccc1OCC(COC(=O)Nc1ccccc1)OC(=O)Nc1ccccc1 (stereo not given)

["37.2 µM (inactive)", "0.832 µM (active)", "0.661 µM (active)", "> 100 µM (inactive)"]

If you can, please state the reported GI50 value of CC(C)(C)OC/C=C(/CO)[C@@H]1C=C[C@H](O)C1 .
> 100 µM (inactive)

====

# System: HCT-116
# Test Details: NCI tumour cell line growth inhibition, 48 h
Activity calls are given as the source filed them. Cut-off read from the data, not from the text of the source: active = GI50 up to about 1.1 µM and inactive = higher.
Kindly supply the reported GI50 values for the records listed here.

Please state GI50 for every compound in the list that follows.
1. CCCCN(C)/N=N/c1[nH]cnc1C(N)=O
2. Cn1c(=O)n2n(c1=O)C([S+]([O-])c1ccccc1)C2 (stereo not given)
3. COc1c2c(cc3c1C1(O)Cc4ccc5c(c4C[N+]1(C)CC3)OCO5)OCO2 (stereo not given)
4. Cn1c(SCc2ccc(F)cc2)nnc1C12CC3CC(CC(C3)C1)C2
5. O=c1[nH]c(=O)n(C2CC(O)C(CO)O2)c2nc3ccc4cc5ccccc5cc4c3nc12 (stereo not given)
6. CCOC(=O)N1c2ccccc2S(=O)(=O)c2ccccc21
7. CC(=O)OC12COC1CC(O)C1(C)C(=O)C(O)C3=C(C)C(O)CC(O)(C(OC(=O)c4ccccc4)C21)C3(C)C (stereo not given)
8. COc1ccc(/N=N/c2ccc3oc(=O)c(C(=O)Nc4ccc(OC)cc4)cc3c2)cc1

1. > 100 µM (inactive)
2. > 100 µM (inactive)
3. 35.1 µM (inactive)
4. 23.3 µM (inactive)
5. > 100 µM (inactive)
6. > 100 µM (inactive)
7. 1.67 µM (inactive)
8. 11.2 µM (inactive)

Please state GI50 for every compound in the list that follows.
1. Oc1c(-c2ccccc2)nc2ccccn12
2. CO[P@@]1(=O)O[C@@H](c2ccccc2)[C@H](O)[C@@]1(O)c1ccccc1

1: > 100 µM (inactive); 2: > 100 µM (inactive)
